Data origin: ChEMBL document CHEMBL3885881

Let's look at some molecules and their measured ASPARTATE AMINOTRANSFERASE.
species: Rattus norvegicus; test: DrugMatrix - Regimen: Daily Repeat; type: toxicity, organism-based, Sprague-Dawley; parameters: regimen Daily Repeat, gender Male, age 6-8 weeks; conditions: in vivo, po, 0 mg/kg, 120 h, tissue Plasma, route oral GAVAGE, dose level Control, time 5 day, vehicle .5 % CMC
Report as a plain number; the unit u/L is understood.

Past entries and their recorded results:
C[C@@](Cc1ccc(O)c(O)c1)(NN)C(=O)O.O [CARBIDOPA] : 76.5
CN(C)C(=O)C(CCN1CCC(O)(c2ccc(Cl)cc2)CC1)(c1ccccc1)c1ccccc1 [LOPERAMIDE] : 94.67
COc1ccccc1[N+](=O)[O-] [2-NITROANISOLE] : 140.33
COc1cc(OC)c(C(=O)CCCN2CCCC2)c(OC)c1 [BUFLOMEDIL] : 74.17
CCCNC(=O)NS(=O)(=O)c1ccc(Cl)cc1 [CHLORPROPAMIDE] : 60.83
C[C@]12CC[C@@H]3c4ccc(O)cc4CC[C@H]3[C@@H]1C[C@@H](O)[C@@H]2O [ESTRIOL] : 89.67
C#C[C@]1(O)CC[C@H]2[C@@H]3CCC4=CC(=O)CC[C@]4(C)[C@H]3CC[C@@]21C [ETHISTERONE] : 65.83
COc1ccc2c(c1OC)C(=O)O[C@@H]2[C@H]1c2c(cc3c(c2OC)OCO3)CCN1C [NOSCAPINE] : 65.83

[ask] Find the measured ASPARTATE AMINOTRANSFERASE of CCOc1nc2cccc(C(=O)O)c2n1Cc1ccc(-c2ccccc2-c2nnn[nH]2)cc1 and report it.
[reply] 99

---

species: Rattus norvegicus; experiment: DrugMatrix - Regimen: Daily Repeat; format: toxicity, organism-based, Sprague-Dawley; design: regimen Daily Repeat, gender Male, age 6-8 weeks; details: in vivo, po, 0 mg/kg, […], tissue Blood, route oral GAVAGE, dose level Control, time 14 day, vehicle .5 % CMC
value_type: ABSOLUTE LYMPHOCYTE

COc1ccccc1[N+](=O)[O-] : 13562 CELLS/uL

Now examine the next entry.
[ask] Please look at this molecule and report its ABSOLUTE LYMPHOCYTE: CN(C)CCN(Cc1cccs1)c1ccccn1
[reply] 10100 cells/µL

---

species on record: Rattus norvegicus; assay: DrugMatrix - Regimen: Daily Repeat; assay type: toxicity, organism-based, Sprague-Dawley; parameters: regimen Daily Repeat, gender Male, age 6-8 weeks; settings: in vivo, po, 0 mg/kg, 120 h, tissue Plasma, route oral GAVAGE, dose level Control, time 5 day, […]
# reported GLUCOSE; entries follow
Give a bare numeral; the unit mg/dL is implied.

Answered cases to consult:
CS(=O)(=O)Nc1ccc([N+](=O)[O-])cc1Oc1ccccc1 [NIMESULIDE] : 171.33
CC(C)c1c(C(=O)Nc2ccccc2)c(-c2ccccc2)c(-c2ccc(F)cc2)n1CC[C@@H](O)C[C@@H](O)CC(=O)O [ATORVASTATIN] : 170.17
CCCCC(=O)N(Cc1ccc(-c2ccccc2-c2nnn[nH]2)cc1)[C@H](C(=O)O)C(C)C : 157.5

Field: next molecule
[ask] Consider the molecule O=c1c(-c2ccc(O)cc2)coc2cc(O)cc(O)c12 [GENISTEIN] and give its recorded GLUCOSE.
[reply] 170.17
